The compounds listed here are annotated with their IC50.
molecular target: ALK (Homo sapiens, UniProt Q9UM73); construct: host or cells: baculovirus expression system; test: ALK Kinase Assay (ELISA/TRF, PLC-γ substrate); assay type: biochemical; settings: ALK kinase inhibition, 1 μM ATP; read-out: ALK Potency
Sequence (Q9UM73 19-1620): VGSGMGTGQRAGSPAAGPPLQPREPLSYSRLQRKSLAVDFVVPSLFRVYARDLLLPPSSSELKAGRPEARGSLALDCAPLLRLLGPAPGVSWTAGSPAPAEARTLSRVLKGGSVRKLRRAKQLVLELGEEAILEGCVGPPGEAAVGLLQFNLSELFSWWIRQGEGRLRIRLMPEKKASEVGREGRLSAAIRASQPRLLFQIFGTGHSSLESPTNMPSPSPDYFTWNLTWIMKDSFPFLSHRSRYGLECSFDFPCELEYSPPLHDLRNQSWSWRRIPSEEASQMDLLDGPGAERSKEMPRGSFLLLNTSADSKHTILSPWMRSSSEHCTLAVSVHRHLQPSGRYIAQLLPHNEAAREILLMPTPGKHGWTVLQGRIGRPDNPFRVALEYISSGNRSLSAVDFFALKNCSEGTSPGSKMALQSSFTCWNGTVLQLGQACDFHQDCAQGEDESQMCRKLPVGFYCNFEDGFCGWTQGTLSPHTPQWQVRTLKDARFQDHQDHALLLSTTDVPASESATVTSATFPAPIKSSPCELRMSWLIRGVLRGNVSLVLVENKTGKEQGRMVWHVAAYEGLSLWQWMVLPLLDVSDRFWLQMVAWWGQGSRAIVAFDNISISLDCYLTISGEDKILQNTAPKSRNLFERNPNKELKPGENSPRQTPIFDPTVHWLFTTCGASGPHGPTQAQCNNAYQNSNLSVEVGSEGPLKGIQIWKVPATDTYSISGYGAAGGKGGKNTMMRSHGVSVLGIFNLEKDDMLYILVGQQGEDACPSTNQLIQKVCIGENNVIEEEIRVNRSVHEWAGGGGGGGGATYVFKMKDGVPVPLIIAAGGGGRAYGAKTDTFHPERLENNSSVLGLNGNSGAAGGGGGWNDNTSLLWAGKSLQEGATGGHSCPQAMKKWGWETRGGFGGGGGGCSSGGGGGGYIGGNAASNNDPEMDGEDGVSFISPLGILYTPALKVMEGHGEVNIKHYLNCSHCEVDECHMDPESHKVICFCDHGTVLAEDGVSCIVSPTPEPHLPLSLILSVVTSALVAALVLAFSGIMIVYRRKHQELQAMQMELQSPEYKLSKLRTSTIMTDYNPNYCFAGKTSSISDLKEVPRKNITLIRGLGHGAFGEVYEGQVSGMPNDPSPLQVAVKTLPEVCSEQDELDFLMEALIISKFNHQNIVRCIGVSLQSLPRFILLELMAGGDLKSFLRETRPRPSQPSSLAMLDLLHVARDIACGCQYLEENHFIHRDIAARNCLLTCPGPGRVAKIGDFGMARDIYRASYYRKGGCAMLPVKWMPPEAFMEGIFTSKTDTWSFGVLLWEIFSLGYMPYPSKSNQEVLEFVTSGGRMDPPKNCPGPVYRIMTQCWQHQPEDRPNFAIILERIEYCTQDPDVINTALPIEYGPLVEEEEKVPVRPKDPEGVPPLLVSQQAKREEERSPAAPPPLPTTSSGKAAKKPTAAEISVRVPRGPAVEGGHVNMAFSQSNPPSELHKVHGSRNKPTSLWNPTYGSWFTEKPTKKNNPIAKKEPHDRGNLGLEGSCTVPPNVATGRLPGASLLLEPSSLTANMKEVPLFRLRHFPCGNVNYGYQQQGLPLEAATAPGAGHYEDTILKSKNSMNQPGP

In [3]: df
Out[3]:
                                   compound  observed_measurement
0  COc1cc(C2(C#N)CCC(N3CCOCC3)CC2)ccc1Nc1ncc2ccc(-c3ccccc3OC)n2n1 (centres unmarked)              < 100 nM
1  CC(C)(C)NS(=O)(=O)c1cccc(-c2ccc3cnc(Nc4ccc5c(c4)CS(=O)(=O)C5)nn23)c1        100 to 1000 nM
2  COc1cc(C2CCN(CCF)CC2)ccc1Nc1ncc2ccc(-c3ccccc3OC)n2n1              < 100 nM
3  COc1ccccc1-c1ccc2cnc(Nc3ccc(N4CCN(C)CC4)cc3Cl)nn12              < 100 nM

Turning now to a further compound:
GET /values?readout=IC50&item= O=S(=O)(c1cccc(-c2ccc3cnc(Nc4ccc5nc(CO)[nH]c5c4)nn23)c1)N1CCOCC1
1000 to 10000 nM

====

target: ALK (Homo sapiens, UniProt Q9UM73); construct: host or cells: baculovirus expression system; test: ALK Kinase Assay (ELISA/TRF, PLC-γ substrate); type: biochemical; details: ALK Kinase Inhibition; read-out: ALK Potency
metric_name: IC50

Please review the following examples before continuing.
>>> print(df.to_string())
                                   molecule  metric_name  observed_measurement
0  CS(=O)(=O)c1cccc(-c2ccc3cnc(Nc4ccc(C5(C#N)CCN(CC(N)=O)CC5)cc4)nn23)c1 [Example 1546]         IC50            1 to 10 µM
1  OCC1CCN(c2ccc(Nc3ncc4ccc(-c5cccnc5)n4n3)cc2)CC1 [Example 116]         IC50            1 to 10 µM

Param item = C[C@@H](O)CN1CCN(c2ccc(Nc3ncc4ccc(-c5cccc(S(=O)(=O)NC(C)(C)C)c5)n4n3)cc2)CC1 [Example 426] ; retrieve measured IC50.
0.1 to 1 µM

IC50 lookup needed for COc1cc(N2CCC[C@@H](C(=O)N3CCN(C)CC3)C2)ccc1Nc1ncc2ccc(-c3ccccc3OC)n2n1 [Example 463] , thanks.
< 0.1 µM

Any idea what IC50 was measured for COc1cc(N2CCCC(N3CCN(C)CC3)C2)ccc1Nc1ncc2ccc(-c3ccccc3OC)n2n1 (single isomer, unassigned) [Example 1442] ?
< 0.1 µM

====

biological target: JAK2 (Homo sapiens, UniProt O60674); construct: host or cells: baculovirus expression system; experiment: Recombinant Human JAK2 Kinase Assay (TRF); type: biochemical; settings: JAK2 kinase inhibition, 0.2 μM ATP; read-out: JAK2 Potency
Sequence (O60674 whole entry): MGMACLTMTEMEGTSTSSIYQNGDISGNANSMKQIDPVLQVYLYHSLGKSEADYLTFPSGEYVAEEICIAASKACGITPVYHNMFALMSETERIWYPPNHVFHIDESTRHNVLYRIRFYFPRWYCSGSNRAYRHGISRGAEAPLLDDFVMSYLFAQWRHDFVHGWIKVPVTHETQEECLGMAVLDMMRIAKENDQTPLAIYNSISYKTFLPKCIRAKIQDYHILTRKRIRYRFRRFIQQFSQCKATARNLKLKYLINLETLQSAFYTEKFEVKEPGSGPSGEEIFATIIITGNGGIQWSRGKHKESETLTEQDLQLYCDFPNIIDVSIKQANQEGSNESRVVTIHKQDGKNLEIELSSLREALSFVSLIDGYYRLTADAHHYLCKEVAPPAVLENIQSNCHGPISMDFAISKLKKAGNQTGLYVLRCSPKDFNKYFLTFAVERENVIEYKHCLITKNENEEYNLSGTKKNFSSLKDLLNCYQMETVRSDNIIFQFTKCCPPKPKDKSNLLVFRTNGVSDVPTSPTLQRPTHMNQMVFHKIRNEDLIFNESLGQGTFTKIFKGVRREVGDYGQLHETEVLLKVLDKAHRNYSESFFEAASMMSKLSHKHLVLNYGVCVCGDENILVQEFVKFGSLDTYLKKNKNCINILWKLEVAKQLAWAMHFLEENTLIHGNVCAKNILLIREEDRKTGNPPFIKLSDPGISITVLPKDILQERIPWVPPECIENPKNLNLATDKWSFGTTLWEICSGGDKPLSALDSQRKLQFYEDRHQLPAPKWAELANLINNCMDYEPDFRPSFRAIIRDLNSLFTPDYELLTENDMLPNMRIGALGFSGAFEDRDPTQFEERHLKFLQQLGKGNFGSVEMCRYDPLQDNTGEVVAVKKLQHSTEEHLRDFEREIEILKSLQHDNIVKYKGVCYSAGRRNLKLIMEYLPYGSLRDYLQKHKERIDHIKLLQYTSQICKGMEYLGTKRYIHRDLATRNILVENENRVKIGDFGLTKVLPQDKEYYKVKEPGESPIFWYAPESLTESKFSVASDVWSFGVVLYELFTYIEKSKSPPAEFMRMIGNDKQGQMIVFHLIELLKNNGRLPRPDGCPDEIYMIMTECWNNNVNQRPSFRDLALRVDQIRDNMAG
metric_name: IC50

Guide cases for IC50, answers given:
>>> df
                                   molecule  observed_measurement
0  COc1cc(C2CCN(CC(=O)N3CCNCC3)CC2)ccc1Nc1ncc2ccc(-c3ccccc3OC)n2n1 [Example 1276]           0.1 to 1 µM
1  COc1ccccc1-c1ccc2cnc(Nc3ccc4c(c3)NC(=O)CC4)nn12 [Example 981]              < 0.1 µM
2  CN1CCN(c2ccc(Nc3ncc4ccc(-c5cccc(CNCCS(C)(=O)=O)c5)n4n3)cc2)CC1 [Example 1162]              < 0.1 µM

// returns reported IC50 for input CN1CCC(c2ccc(Nc3ncc4ccc(-c5cccc(Cl)c5)n4n3)cc2)CC1 [Example 1131]
< 0.1 µM
